Below, each of the compounds is paired with its reported Emax value.
- Assayed System: PKR(wt) (Homo sapiens)
- Sequence (P30613 whole entry): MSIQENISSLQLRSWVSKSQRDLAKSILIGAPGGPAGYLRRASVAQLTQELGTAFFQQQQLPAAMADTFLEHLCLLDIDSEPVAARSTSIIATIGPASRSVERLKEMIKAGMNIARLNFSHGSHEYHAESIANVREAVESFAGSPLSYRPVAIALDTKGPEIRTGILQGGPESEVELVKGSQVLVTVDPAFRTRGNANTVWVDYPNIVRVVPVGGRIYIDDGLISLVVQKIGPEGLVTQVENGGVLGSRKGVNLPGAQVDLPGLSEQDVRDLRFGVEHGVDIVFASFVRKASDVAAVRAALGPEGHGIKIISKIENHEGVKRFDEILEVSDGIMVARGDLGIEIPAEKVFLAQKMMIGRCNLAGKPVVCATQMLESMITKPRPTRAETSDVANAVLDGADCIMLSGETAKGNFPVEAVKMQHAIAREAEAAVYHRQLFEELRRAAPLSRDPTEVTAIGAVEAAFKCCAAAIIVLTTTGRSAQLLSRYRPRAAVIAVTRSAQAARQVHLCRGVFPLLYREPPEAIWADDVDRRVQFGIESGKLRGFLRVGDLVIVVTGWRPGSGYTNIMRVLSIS
- Protocol Text: Luminescence Biochemical Assay (Kinase Glo Plus), wild type PKR
- Stated Conditions: without FBP, read-out: AC50 LUM KGP woFBP MAX % FOLD mean

Structure Smiles String | Emax
O=C([C@H](O)c1ccccc1)N1CC2=C(C1)CN(S(=O)(=O)c1cc(F)cc(F)c1)C2 | 75 to 250%
O=C(Cc1cccnc1)N1CC2=C(C1)CN(S(=O)(=O)c1ccccn1)C2 | 250 to 500%
Cc1cc(C(=O)N2CC3=C(C2)CN(S(=O)(=O)c2ccc4occc4c2)C3)nn1C | 75 to 250%
O=C(Cc1cnccn1)N1CC2=C(C1)CN(S(=O)(=O)c1ccc(OC(F)F)cc1)C2 | 250 to 500%

Reference source for all entries: patent US12122778B2
